Would you kindly list zone of inhibition at 50 µM for each of these molecules?
Tested on: Enterobacter cloacae
Test: Antibacterial activity against clinically isolated Enterobacter cloacae RBRJ017 assessed as inhibition of bacterial growth at 50 uM measured after 48 hrs by agar well diffusion method
Assay type: functional
Conditions: read-out: IZ

In plain terms, Cc1ccc(C(C)C)c(OCc2cn(CCN3C(=O)C(=O)c4cc(F)ccc43)nn2)c1 has a documented zone of inhibition at 50 µM of 14.2 mm

In plain terms, Cc1ccc(C(C)C)c(OCc2cn(CCN3C(=O)C(=O)c4cc(Br)ccc43)nn2)c1 has a documented zone of inhibition at 50 µM of 13.3 mm

In plain terms, Cc1ccc(C(C)C)c(OCc2cn(CCCCN3C(=O)C(=O)c4ccccc43)nn2)c1 has a documented zone of inhibition at 50 µM of 12.6 mm

In plain terms, Cc1ccc(C(C)C)c(OCc2cn(CCCN3C(=O)C(=O)c4ccccc43)nn2)c1 has a documented zone of inhibition at 50 µM of 19.2 mm

In plain terms, Cc1ccc(C(C)C)c(OCc2cn(CCN3C(=O)C(=O)c4cc(I)ccc43)nn2)c1 has a documented zone of inhibition at 50 µM of 13.1 mm

* * *

Test system: Escherichia coli
Experiment: Antibacterial activity against Escherichia coli MTCC 119 assessed as inhibition of bacterial growth at 50 uM measured after 48 hrs by agar well diffusion method
Type: functional
Conditions: read-out: IZ
metric name: zone of inhibition at 50 µM
Please report the result as a number followed by the unit.

In plain terms, Cc1ccc(C(C)C)c(OCc2cn(CCCN3C(=O)C(=O)c4cc(I)ccc43)nn2)c1 has a documented zone of inhibition at 50 µM of 13.2 mm

In plain terms, Cc1ccc(C(C)C)c(OCc2cn(CCCN3C(=O)C(=O)c4cc(F)ccc43)nn2)c1 has a documented zone of inhibition at 50 µM of 15.2 mm

In plain terms, Cc1ccc(C(C)C)c(OCc2cn(CCN3C(=O)C(=O)c4cc(Br)ccc43)nn2)c1 has a documented zone of inhibition at 50 µM of 12.5 mm

* * *

Test system: Enterobacter cloacae
Assay: Antibacterial activity against clinically isolated Enterobacter cloacae RBRJ017 assessed as inhibition of bacterial growth at 50 uM measured after 48 hrs by agar well diffusion method
Type: functional
Details: read-out: IZ
metric name: zone of inhibition at 50 µM (mm)
Kindly answer with a numeric value in mm, unit omitted.

In plain terms, Cc1ccc(C(C)C)c(OCc2cn(CCCN3C(=O)C(=O)c4cc(F)ccc43)nn2)c1 has a documented zone of inhibition at 50 µM of 15.3

In plain terms, COc1ccc2c(c1)C(=O)C(=O)N2CCCCn1cc(COc2cc(C)ccc2C(C)C)nn1 has a documented zone of inhibition at 50 µM of 10.9

In plain terms, Cc1ccc(C(C)C)c(OCc2cn(CCN3C(=O)C(=O)c4cc(C)ccc43)nn2)c1 has a documented zone of inhibition at 50 µM of 14.2

In plain terms, Cc1ccc(C(C)C)c(OCc2cn(CCCCN3C(=O)C(=O)c4cc(I)ccc43)nn2)c1 has a documented zone of inhibition at 50 µM of 10.2

In plain terms, Cc1ccc(C(C)C)c(OCc2cn(CCCN3C(=O)C(=O)c4cc(C)ccc43)nn2)c1 has a documented zone of inhibition at 50 µM of 15.4

In plain terms, Cc1ccc(C(C)C)c(OCc2cn(CCCCN3C(=O)C(=O)c4cc(Cl)ccc43)nn2)c1 has a documented zone of inhibition at 50 µM of 11.5

In plain terms, Cc1ccc(C(C)C)c(OCc2cn(CCCN3C(=O)C(=O)c4cc(Cl)ccc43)nn2)c1 has a documented zone of inhibition at 50 µM of 15.7

In plain terms, COc1ccc2c(c1)C(=O)C(=O)N2CCn1cc(COc2cc(C)ccc2C(C)C)nn1 has a documented zone of inhibition at 50 µM of 13.2

In plain terms, Cc1ccc(C(C)C)c(OCc2cn(CCCCN3C(=O)C(=O)c4cc(F)ccc43)nn2)c1 has a documented zone of inhibition at 50 µM of 12.5
